meta.source: ChEMBL document CHEMBL1137729

Would you kindly list Activity for each of these compounds?
Test system: Mus musculus
Assay: Toxicity in ovariectomized ICR mouse assessed as spleen weight at 110.3 nmol/kg, po treated for 4 weeks measured after 1 day of last treatment
Format: organism-based
Conditions: in vivo, 24 h
Residues, ends and D or L forms follow the SMILES beside them. *: point of attachment. Succinyl(O17-estradiol) = C[C@]12CC[C@@H]3c4ccc(O)cc4CC[C@H]3[C@@H]1CC[C@@H]2OC(=O)CCC(=O)*; Acetyl(estradiol-3-yloxy) = C[C@]12CC[C@@H]3c4ccc(OCC(=O)*)cc4CC[C@H]3[C@@H]1CC[C@@H]2O
Please state the figure in g; there is no need to write the unit.

### Prompt Can you share its Activity? I mean this compound: C[C@]12CC[C@@H]3c4ccc(OCC(=O)N[C@@H](CCCNC(=N)N)C(=O)NCC(=O)N[C@@H](CC(=O)O)C(=O)N[C@@H](Cc5ccccc5)C(=O)O)cc4CC[C@H]3[C@@H]1CC[C@@H]2O ({Acetyl(estradiol-3-yloxy)}-RGDF-OH)
### Response 0.177

### Prompt Dear colleague, I am looking for the recorded Activity of the following compound: C[C@]12CC[C@@H]3c4ccc(OCC(=O)N[C@@H](CCCNC(=N)N)C(=O)NCC(=O)N[C@@H](CC(=O)O)C(=O)N[C@@H](CO)C(=O)O)cc4CC[C@H]3[C@@H]1CC[C@@H]2O ({Acetyl(estradiol-3-yloxy)}-RGDS-OH)
### Response 0.142

### Prompt Recorded Activity of C[C@]12CC[C@@H]3c4ccc(O)cc4CC[C@H]3[C@@H]1CC[C@@H]2OC(=O)CCC(=O)N[C@@H](CCCNC(=N)N)C(=O)NCC(=O)N[C@@H](CC(=O)O)C(=O)N[C@@H](CO)C(=O)N[C@@H](CCCNC(=N)N)C(=O)NCC(=O)N[C@@H](CC(=O)O)C(=O)N[C@@H](CO)C(=O)O ({Succinyl(O17-estradiol)}-RGDSRGDS-OH) , please.
### Response 0.149

### Prompt Could you share which Activity value was measured for C[C@]12CC[C@@H]3c4ccc(O)cc4CC[C@H]3[C@@H]1CC[C@@H]2OC(=O)CCC(=O)N[C@@H](CCCNC(=N)N)C(=O)NCC(=O)N[C@@H](CC(=O)O)C(=O)N[C@@H](Cc1ccccc1)C(=O)O ({Succinyl(O17-estradiol)}-RGDF-OH) ?
### Response 0.135

====

System: Mus musculus
Assay: Antiosteoporosis activity in ovariectomized ICR mouse assessed as length of femur at 110.3 nmol/kg, po treated for 4 weeks measured after 1 day of last treatment
Assay type: functional
Residues, ends and D or L forms follow the SMILES beside them. *: point of attachment. Succinyl(O17-estradiol) = C[C@]12CC[C@@H]3c4ccc(O)cc4CC[C@H]3[C@@H]1CC[C@@H]2OC(=O)CCC(=O)*
Metric Name: Activity (cm)
The response must be a number in cm with no trailing unit.

### Prompt Notebook: pull reported Activity for Mus musculus, entry C[C@]12CC[C@@H]3c4ccc(O)cc4CC[C@H]3[C@@H]1CC[C@@H]2O [ESTRADIOL]
### Response 1.642

### Prompt # value lookup — system Mus musculus, readout Activity, item C[C@]12CC[C@@H]3c4ccc(O)cc4CC[C@H]3[C@@H]1CC[C@@H]2OC(=O)CCC(=O)N[C@@H](CCCNC(=N)N)C(=O)NCC(=O)N[C@@H](CC(=O)O)C(=O)N[C@@H](Cc1ccccc1)C(=O)N[C@@H](CCCNC(=N)N)C(=O)NCC(=O)N[C@@H](CC(=O)O)C(=O)N[C@@H](Cc1ccccc1)C(=O)O ({Succinyl(O17-estradiol)}-RGDFRGDF-OH)
### Response 1.64

### Prompt Can you look up Activity on Mus musculus for C[C@]12CC[C@@H]3c4ccc(O)cc4CC[C@H]3[C@@H]1CC[C@@H]2OC(=O)CCC(=O)N[C@@H](CCCNC(=N)N)C(=O)NCC(=O)N[C@@H](CC(=O)O)C(=O)N[C@@H](Cc1ccccc1)C(=O)O ({Succinyl(O17-estradiol)}-RGDF-OH) ?
### Response 1.64

### Prompt Give Mus musculus Activity for C[C@]12CC[C@@H]3c4ccc(O)cc4CC[C@H]3[C@@H]1CC[C@@H]2OC(=O)CCC(=O)N[C@@H](CCCNC(=N)N)C(=O)NCC(=O)N[C@@H](CC(=O)O)C(=O)N[C@@H](CO)C(=O)O ({Succinyl(O17-estradiol)}-RGDS-OH)
### Response 1.659
